compounds and their reported pEC50
- target: human QRFPR (hQRFPR) (Homo sapiens, UniProt Q96P65)
- Construct: expressed in transfected cells; host or cells: CHO cells, stably transfected with hQRFPR (G418 selection) and Gα16 (hygromycin B selection)
- Sequence (Q96P65 1-431): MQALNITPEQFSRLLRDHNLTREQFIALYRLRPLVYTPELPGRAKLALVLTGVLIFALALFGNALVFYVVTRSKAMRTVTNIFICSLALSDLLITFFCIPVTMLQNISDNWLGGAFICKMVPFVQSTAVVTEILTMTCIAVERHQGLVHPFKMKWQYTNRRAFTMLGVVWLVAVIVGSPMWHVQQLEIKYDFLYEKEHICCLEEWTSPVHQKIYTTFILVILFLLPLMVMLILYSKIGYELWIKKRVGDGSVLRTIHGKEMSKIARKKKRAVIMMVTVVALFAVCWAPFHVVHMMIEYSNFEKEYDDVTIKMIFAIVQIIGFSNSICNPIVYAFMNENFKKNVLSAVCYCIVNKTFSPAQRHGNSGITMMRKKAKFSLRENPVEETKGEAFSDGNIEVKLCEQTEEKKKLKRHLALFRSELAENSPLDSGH
- assay_info: Calcium mobilization assay, agonist mode ([Ca2+]i in Gα16-hQRFPR-transfected CHO cells)
- Type: cell-based
- assay_conditions: [Ca2+]i mobilization in Gα16-hQRFPR-transfected CHO cells; mean of at least three independent experiments performed in triplicate; read-out: EC50
pEC50: −log10 of the molar value. Non-standard residues stand in square brackets, D forms with d. Residues, ends and D or L forms follow the SMILES beside them. ξ: configuration not given here. *: point of attachment. Oic = O=C(O)[C@@H]1C[C@@H]2CCCC[C@@H]2N1; X5 = COc1ccc(C(C(=O)*)N2CCNCC2)cc1; ξPhg = NC(C(=O)O)c1ccccc1

These solved cases illustrate the format of a correct answer.
{"compound": "COc1ccc(C(C(=O)N[C@@H](CO)C(=O)N[C@@H](Cc2ccccc2)C(=O)N[C@@H](CCCNC(=N)N)C(=O)N[C@@H](Cc2ccccc2)C(N)=O)N2CCNCC2)cc1 (stereo partly drawn) [Compound 60, [Cmpi(4-MeOPhg)^22]26RFa(22–26)] (X5-SFRF-NH2)", "pEC50": "< 5.00"}
{"compound": "N=C(N)NCCC[C@H](NC(=O)[C@H](Cc1ccccc1)NC(=O)[C@H](CO)NC(=O)[C@H](Cc1ccccc1)NC(=O)CNC(=O)CN)C(=O)N1[C@H](C(N)=O)C[C@@H]2CCCC[C@@H]21 [Compound 45, [Oic^26]26RFa(20–26)] (H-GGFSFR[Oic]-NH2)", "pEC50": "< 5.00"}

Could you please provide reported pEC50 for N=C(N)NCCC[C@H](NC(=O)C(NC(=O)[C@H](CO)NC(=O)[C@H](Cc1ccccc1)NC(=O)CNC(=O)CN)c1ccccc1)C(=O)N[C@@H](Cc1ccccc1)C(N)=O (stereo partly drawn) [Compound 22, [Phg^24]26RFa(20–26)] (H-GGFS[ξPhg]RF-NH2) ? Thanks!
< 5.00

These measurements were taken from paper PMC8307317.
